Test: in vivo
Conditions: Beagle, dog, iv, 1 mg/kg
ASSAY READOUT: clearance (mL/min/kg)
One number for each entry, in mL/min/kg.

query: Recorded clearance for Cc1ccc(-n2nccn2)c(C(=O)N2CCCN2Cc2ccn(-c3ccccc3)n2)c1 , please?
result: 17

* * *

Test: in vivo
Conditions: Beagle, dog, po, 10 mg/kg
ASSAY READOUT: AUC (ng·h/mL)
Give bare numbers, in ng·h/mL.

query: Recorded AUC for Cc1ccc(-n2nccn2)c(C(=O)N2CCCN2Cc2ccn(-c3ccccc3)n2)c1 , please?
result: 1040

* * *

Record form. Attribute: logD. Fill in for each entry.
Assay: physchem
Settings: buffer, pH 7.4
Answers are plain numbers.

Quick request: logD for each listed item, please.
1. Cn1ccc(C(=O)N2C[C@@H]3COc4cc(F)ccc4[C@@H]3N2Cc2cccc(-c3ncccn3)c2)n1 (racemic)
2. COc1cc(CN2[C@H]3c4ccccc4OC[C@H]3CN2C(=O)C2CCCCC2)cc(OC)c1

result:
[2.8, 3.8]

query: Recorded logD for Cn1ccc(C(=O)N2C[C@@H]3CCc4cc(F)ccc4[C@@H]3N2Cc2cccc(-c3ncccn3)c2)n1 (racemic) , please?
result: 3.3
